Give Activity for every item shown.
System: THP-1
Assay: Antiinflammatory activity in LPS-stimulated human THP1 cells assessed as inhibition of IL6 formation at 1 uM pretreated 30 mins before LPS challenge measured after 24 hrs by ELISA
Assay type: functional
Design: scale not given: the % may be the effect or the level left
# output: bare number, implied unit %

Endpoint output: Activity of `COc1cc(OC)c(C(=O)c2cccc(Cl)c2)c(O)c1CN1CCCC1` . Value?
41

Consider the molecule shown here: `COc1cc(OC)c(C(=O)c2cccc(Cl)c2)c(O)c1CN1CCOCC1` What is its recorded Activity?
42

Entry under review: `COc1cc(O)c(C(=O)c2cccc(Cl)c2)c(OC)c1` . Reported Activity?
31

What does the data say about its Activity? Entry: `COc1cc(OC)c(C(=O)c2ccccc2F)c(O)c1CN1CCCC1`
15

Query: Activity; subject: `COc1cc(O)c(C(=O)c2ccccc2F)c(OC)c1`
11

Give its Activity value. Item: `COc1cc(OC)c(C(=O)c2cccc(F)c2)c(O)c1CN1CCCC1`
34
